Biological target: M-phase inducer phosphatase 1 (Homo sapiens)
Sequence (P30304 whole entry): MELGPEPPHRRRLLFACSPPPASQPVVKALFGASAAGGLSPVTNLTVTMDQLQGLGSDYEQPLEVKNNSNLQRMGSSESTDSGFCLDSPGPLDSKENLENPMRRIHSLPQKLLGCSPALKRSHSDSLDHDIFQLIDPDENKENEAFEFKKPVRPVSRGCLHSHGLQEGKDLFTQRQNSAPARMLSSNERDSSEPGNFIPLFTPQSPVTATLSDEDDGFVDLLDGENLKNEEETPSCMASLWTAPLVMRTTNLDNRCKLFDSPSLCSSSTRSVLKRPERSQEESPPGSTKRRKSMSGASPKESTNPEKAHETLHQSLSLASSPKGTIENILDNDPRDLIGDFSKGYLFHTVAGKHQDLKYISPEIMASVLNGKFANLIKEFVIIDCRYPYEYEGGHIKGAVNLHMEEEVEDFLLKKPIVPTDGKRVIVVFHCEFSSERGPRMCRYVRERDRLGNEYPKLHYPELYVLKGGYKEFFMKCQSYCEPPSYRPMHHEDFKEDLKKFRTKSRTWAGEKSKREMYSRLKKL
reported-property: Ki (nM)

INSERT INTO measurements (compound, reported_property, observed_value) VALUES
  ('CCOC(=O)c1ccccc1Nc1cccc2ccccc12', 'Ki', 600),
  ('Nc1cccc2c(Nc3cccc(C(=O)O)c3)cccc12', 'Ki', 600);

###

molecular target: M-phase inducer phosphatase 3 (Homo sapiens, UniProt P30307)
Sequence (P30307 whole entry): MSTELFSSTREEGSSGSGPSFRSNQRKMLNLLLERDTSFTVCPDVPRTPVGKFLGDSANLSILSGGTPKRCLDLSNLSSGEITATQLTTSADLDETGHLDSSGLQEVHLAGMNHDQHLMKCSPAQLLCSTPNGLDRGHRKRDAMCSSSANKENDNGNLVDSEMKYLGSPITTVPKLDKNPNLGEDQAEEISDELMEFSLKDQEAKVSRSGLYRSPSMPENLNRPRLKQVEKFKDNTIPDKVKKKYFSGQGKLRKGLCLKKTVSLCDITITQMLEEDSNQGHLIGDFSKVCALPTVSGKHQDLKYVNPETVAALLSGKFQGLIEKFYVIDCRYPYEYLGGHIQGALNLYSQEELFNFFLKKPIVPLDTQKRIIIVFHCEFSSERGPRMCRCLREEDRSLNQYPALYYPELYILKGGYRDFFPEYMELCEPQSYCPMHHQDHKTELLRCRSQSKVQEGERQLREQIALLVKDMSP
reported-property: pKi
Friendly reminder that pKi comes from taking -log10 of the concentration in mol/L.

Any idea what its pKi is? The molecule is CCOC(=O)c1ccccc1Nc1cccc2ccccc12
6.40

###

target: M-phase inducer phosphatase 2 (Homo sapiens); test: Uncompetitive inhibition of N-terminal His6-tagged human CDC25B (377 to 550 residues) expressed in Escherichia coli BL21(DE3) cells using OMFP as substrate by double reciprocal Lineweaver-Burk plot analysis
reported-property: Ki (µM)

INSERT INTO measurements (compound, observed_value) VALUES
  ('COc1cc(Nc2cccc(C(=O)O)c2)c2ccccc2c1', 55),
  ('CCOC(=O)c1cccc(Nc2cccc3ccccc23)c1', 7.3),
  ('O=C(O)c1cccc(Nc2ccc(O)c3ccccc23)c1', 6.4),
  ('CCOC(=O)c1cccc(Nc2cc(OC)cc3ccccc23)c1', 8.5);

a = COc1ccc(Nc2ccccc2C(=O)O)c2ccccc12
b = CCOC(=O)c1ccccc1Nc1cccc2ccccc12
c = CCOC(=O)c1ccccc1Nc1cc(OC)cc2ccccc12
d = COc1ccc(Nc2cccc(C(=O)O)c2)c2ccccc12
e = O=C(O)c1ccccc1Nc1cccc2ccccc12
Please list the entries, largest Ki first. Return the labels ranked in the requested order, please.
d, e, c, a, b
(d: 45 µM, e: 22 µM, c: 12.5 µM, a: 6.1 µM, b: 2.8 µM)

###

biological target: M-phase inducer phosphatase 2 (Homo sapiens, UniProt P30305); assay: Mixed inhibition of N-terminal His6-tagged human CDC25B (377 to 550 residues) expressed in Escherichia coli BL21(DE3) cells using OMFP as substrate by double reciprocal Lineweaver-Burk plot analysis
Sequence (P30305 whole entry, the tested form may be a part): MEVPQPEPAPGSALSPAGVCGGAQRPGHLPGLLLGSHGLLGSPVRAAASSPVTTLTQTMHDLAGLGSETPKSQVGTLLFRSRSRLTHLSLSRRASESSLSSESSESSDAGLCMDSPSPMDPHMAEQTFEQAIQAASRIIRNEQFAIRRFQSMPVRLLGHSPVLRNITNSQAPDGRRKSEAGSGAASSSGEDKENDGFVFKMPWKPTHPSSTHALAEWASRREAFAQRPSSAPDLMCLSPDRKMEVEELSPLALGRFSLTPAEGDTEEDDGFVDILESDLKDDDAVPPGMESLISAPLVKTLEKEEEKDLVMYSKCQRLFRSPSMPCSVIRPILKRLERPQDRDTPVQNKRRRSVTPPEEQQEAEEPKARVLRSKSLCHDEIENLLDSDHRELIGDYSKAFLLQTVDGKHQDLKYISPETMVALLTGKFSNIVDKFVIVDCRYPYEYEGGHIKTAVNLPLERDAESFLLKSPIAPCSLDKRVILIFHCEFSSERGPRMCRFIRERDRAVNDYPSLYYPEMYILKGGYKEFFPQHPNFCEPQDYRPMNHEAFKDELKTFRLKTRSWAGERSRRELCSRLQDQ
reported-property: Ki (µM)

INSERT INTO results (compound, observed_value) VALUES
  ('c1ccc(Nc2cccc3ccccc23)cc1', 32),
  ('CCOC(=O)c1ccccc1C(=O)c1cccc2ccccc12', 54),
  ('O=C(O)c1cccc(Nc2cccc3ccccc23)c1', 30);

a = O=C(O)c1ccccc1C(=O)c1cccc2ccccc12
b = COc1cc(C(=O)c2ccccc2C(=O)O)c2ccccc2c1
Quick check, higher Ki between a and b ? When you have decided, please share the label of that item.
a
